src = the nanobody polyreactivity screen of Harvey et al. (2022)

# protocol.summary: yeast display, Sf9 membrane polyspecificity reagent, FACS + sequencing; frameworks hold sequencing errors
test.readout: polyreactivity (PSR sort gate)

>>> result("QVQLVESGGGLVQAGGSLRLSCASSGSIFDVNAMGWYRPAPGKERELVAAISQRGTRTYYADSVKGSFTISRDNAKNTVYLQMNSLKPEDTAVYYCNRGGWRQYDSWGQGSQVTVSS")
"high polyreactivity"
>>> result("QVQLVESGGGLVQAGGSLRLSCAASGFIFYTYAMGWYRQAPGKERELVAAIRRGGSTYYADSVKGRFTISRDNAKNTVYLQMNSLKPEDTAVYYCNARIPYKAKTNHFGYWGQGTQVTVSS")
"high polyreactivity"
>>> result("QVQLVESGGGLVQAGGRLRLSCAASGSIFRLYAMGWYRQAPGKEREFVAGITRRTGSTYYADSVKGRFTISRDNAKNTVNLQMNSLKPEDTAVYYCAKRDARATPFGYWGQGTQVTVSS")
"high polyreactivity"
>>> result("QVHLVESGGGLVQAGGSLRLTCAASGSTFGTYAMGWYRPAPGKERELVATIAIGGITYYADSVKGRFTISRDNAKYTVYLQMNSLKPEDTAVDYCAKDVTAPTSRSDPSGDDYWGQGTQVTVSS")
"low polyreactivity"
>>> result("QVQLVESAVGLVQAGGSLRLSCAASGILFARYAMGWYRQAPGKERELVAVISGSGGSTYYADSVKGRFTISRDNAKNTVYLQMNSLKPEDTAVYYCNAEFESGHDLDWYDYWGQGTQVTVSS")
"low polyreactivity"
>>> result("QVQPVESGGGLVQAGGSLRLSCDASGRIFYEYAMGRSRQAPGKERELVAISTSGGNTYYADSVKGRFTISRDNAKNTVYLQMKSLKPEDTEVYYCAKRGYRAYYWGQGTLVTVSS")
"high polyreactivity"
>>> result("QVQLVESGGGLVQAGGSLRLSCAASGFIFWWYNMGWYRQAPGKERELVAAISGSGGSTYYADSVKGRFTISRDNAKNTVYLQMNSLKPEHTAVYYCAALFGTGQFYYRYDYWGQGTQVTVSS")
"high polyreactivity"
>>> result("QVQLVESGGGLVQAGGSLPLSCAASGSTFLAYAMGWYRQAPGKERELVAAITWNSGSSTFYADSVKGRFTISRDNAKNTVYLQMNSLKPEDTAVYYCNADVPSPAYYGDGTPYREDNYWGQGTQVTVSS")
"low polyreactivity"
>>> result("QVQLVESGGGLVQAGGSLRLSCAASGRTFVPYAMGWYRQAPGKEREMVAAISQSGGRTYYTDSVKGRFTISRDNAKNTVYLLMNSLKPEDTAVYYCAARGPYRPPHGDAYYTYVYWGQGTQVTVSS")
"high polyreactivity"
>>> result("QLQHVESGGGLVQAGGSLRLSCDASGYTFAWYAMGWYIQAPGKESELVAAISVSGGSTYYADSVKGRFTISRDNAKNTVYIQMNSLKPEDTAVYYCAARRYLGYSASYDYWGQGTQVTVSS")
"high polyreactivity"
>>> result("QVQLEESGGGLVQAGGSLRLSCAASGRTFDRYAMGWYRQAPGKERELVAAITWSGGRTYYADSVKGRFTISRDNPKNTVYLQMNSLKPEDTAVYYCATAYYYHGGYYYPYDVDYWGQGTQVTVSS")
"low polyreactivity"

----------
# protocol.summary: yeast display, Sf9 membrane polyspecificity reagent, FACS + sequencing; frameworks hold sequencing errors
test.readout: polyreactivity (PSR sort gate)

>>> result("QVQLVESGGGLVQAGGSLRLSCAASGRIFQRNTMGWYRQAPGKERELVAAITWNGGSTYYADSVKGRFTISRDNAKNTVFLQMNSMKPEDTAVDYCATAYRYSVHKALGFNYWGQGTQVTVSS")
"high polyreactivity"
>>> result("QVQLVESGGGLVQAGGSLRLSCAASGLIFESNAMGWYRQAPGKGRELVAAITTNGGSTYYADSVKGRFTISRDKGKNTVYLQMNSLKPEDTAVYYCAARFSYRSYDYWGQGTQVTVSS")
"low polyreactivity"
>>> result("QVQLVESGGGLVQAGGSLRLSCAASGSIFVGYAMGWYRQAPGKEREVVAAISSSGTSTYYADSVKGRFTISRDNAKNTVYLQMNSLKPEDTAVYYCNARWYVPAYEFDYWGHGTQVTVSS")
"low polyreactivity"
>>> result("QVQLVESGGGLVQAGGSLRLSCAASGIILDEYAMGVYSQAPGKERELVAAITWIGGSTYADSVKGRFTISRDNAKNTVYLQMNRLKPEDTAVYYCAADYPSLFVCYGYGWYNYDYWGQGTQVTVSS")
"low polyreactivity"
>>> result("QVQLVESGGGLVQAGGSLRLSCAASGRIFDTNAMGWYRQAPGKERELVAAITYSGGSTYYADSVKGRFTISRDNAKNTVYLQMNSLKPEDTAVYYCARVRPYSKYAYGYWGQGTQVTVSS")
"high polyreactivity"
>>> result("QVQLVESGGGLVQAGGSLRLSCAASGFIFRRNAMGWYRQAPGKERELVAAITKSGGSTYYADSVKGRFTISRDNAKNTVYLQMNSLKPEDTAVYYCAASDASGGGYWGQGTQVTVSS")
"high polyreactivity"
>>> result("QVQLVESGGGLVQAGGSLRLSCAASGSTFTYYAMGWYRQAPGKEREFVATIRRSGGRTNYADSVKGRFTISRDNAKNTVYLQMNSLKPEDTAVYYCNARYTNVRGFDYWGQGTQVTVSS")
"high polyreactivity"
>>> result("QVQLVESGGGLVQAGGSLRISCAASGSTNEYAMGWYRQAPGKERELVAAITWSGGRTYYADSVKGRFTISRDNAKNTVYLQMNSLKPEDTAVYYCAKAYYARHGRYTYYSWGQGTQVTVSS")
"high polyreactivity"
>>> result("QVQLVESGGGLVQAGGSLRLSCAGSGSTSYNDMGWYRQAPGKEREMGASITSSGDDTYYADSVKGRFTISRDNAKNTVYLQMNSLKPEDTAVYYCAAEDYHRHVGSDFVIDYDYWGQGTQVTVSS")
"low polyreactivity"
>>> result("QVQLVESGGGLVQAGGSLRLSCAASGSIVAGNAMGWYIQAPGKEREMVAAITWRSGRTYYADSVKGRFTISRDNAKNTVNLQMNSLKPVDTAVYYCARGRYGYTAPVRRWYFRYDYWGQGTQVTVSS")
"high polyreactivity"
>>> result("QVQLVESGGGLVQAGGSLRLSCAASGYAMGWYRQAPGKERELVAAISWSGDITYADSVKGRFTISRDNAKNTVYLQMNRLKPEDTAVYYCNADRYTGRDGEQSLDYWGQGTQVTVSS")
"low polyreactivity"
